- targetOfAssay: PDIA3 (Homo sapiens, UniProt P30101)
- Construct: made in house; host or cells: E. coli BL21 (vector pET21)
- methodSummary: Disulfide reductase activity with DiE-GSSG fluorogenic probe
- Assay type: biochemical
- statedConditions: DiE-GSSG substrate
- Experimental: Disulfide reductase activity of ERp57 was monitored by sensitive fluorescent assay using dieosin glutathione disulfide (DiE-GSSG) as fluorogenic probe. […] DiE-GSSG concentration was determined spectrophotometrically (ℇ 525 = 88,000 M^-1 cm^−1). […] A 20 μl aliquot of a stock solution of PDIA3 (1 μM) was added to the reaction mixture and DiE-GSSG reduction was monitored at 545 nm with excitation at 520 nm, at 25°C with continuous stirring. […]
assayMetric: Effect on disulfide reductase activity (in words)

O=c1c(O)c(-c2ccc(O)cc2O)oc2cc(O)cc(O)c12 = some inhibitory effect
O=c1c(O)c(-c2ccc(O)c(O)c2)oc2cc(O)cc(O)c12 = some inhibitory effect

---

- targetOfAssay: PDIA3 (Homo sapiens)
- Construct: made in house; host or cells: E. coli BL21 (vector pET21)
- Sequence (P30101 25-505): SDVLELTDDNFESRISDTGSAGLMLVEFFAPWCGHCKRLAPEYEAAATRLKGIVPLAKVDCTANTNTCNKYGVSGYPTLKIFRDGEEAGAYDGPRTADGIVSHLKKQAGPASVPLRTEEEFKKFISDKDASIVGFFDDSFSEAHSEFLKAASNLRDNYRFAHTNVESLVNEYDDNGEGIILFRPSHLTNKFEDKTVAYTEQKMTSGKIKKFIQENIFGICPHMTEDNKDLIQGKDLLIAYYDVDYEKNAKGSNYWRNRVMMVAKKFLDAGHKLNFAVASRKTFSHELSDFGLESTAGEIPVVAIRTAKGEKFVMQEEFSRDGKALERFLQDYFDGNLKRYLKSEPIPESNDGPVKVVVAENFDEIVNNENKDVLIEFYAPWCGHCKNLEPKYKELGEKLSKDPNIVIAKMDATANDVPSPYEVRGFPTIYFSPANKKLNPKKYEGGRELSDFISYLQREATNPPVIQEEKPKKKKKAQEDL
- methodSummary: Fluorescence quenching titration of PDIA3 intrinsic fluorescence
- Type: binding
- statedConditions: K SV = K q τ0 with τ0 of the order of 10^−8 s; reduced PDIA3, pH 7.4, 25°C
assayMetric: bimolecular quenching rate constant (K q) (M⁻¹ s⁻¹)
Express the result in M⁻¹ s⁻¹ but write the number alone.

COc1cc(-c2oc3cc(O)cc(O)c3c(=O)c2O)ccc1O = 3.61e+12
COc1ccc(-c2cc(=O)c3cc(OC)ccc3o2)c(OC)c1 = 2.22e+12
O=c1c(-c2ccc(O)cc2)coc2cc(O)cc(O)c12 = 2.3e+12

Problem: Which value of bimolecular quenching rate constant (K q) has been reported for COc1c(-c2ccc(O)c(O)c2)oc2cc(O)cc(O)c2c1=O in the records?
Solution: 4.11e+12

Problem: Which value of bimolecular quenching rate constant (K q) has been reported for O=c1c(O)c(-c2ccc(O)c(O)c2)oc2cc(O)cc(O)c12 in the records?
Solution: 4.62e+12

Problem: Which value of bimolecular quenching rate constant (K q) has been reported for O=C1C[C@@H](c2ccc(O)cc2)Oc2cc(O)cc(O)c21 in the records?
Solution: 1.69e+12

Problem: Which value of bimolecular quenching rate constant (K q) has been reported for C[C@@H]1O[C@@H](Oc2c(-c3ccc(O)c(O)c3)oc3cc(O)cc(O)c3c2=O)[C@H](O)[C@H](O)[C@H]1O in the records?
Solution: 2.92e+12

Problem: Which value of bimolecular quenching rate constant (K q) has been reported for O=c1c(O[C@@H]2O[C@H](CO)[C@@H](O)[C@H](O)[C@H]2O)c(-c2ccc(O)c(O)c2)oc2cc(O)cc(O)c12 in the records?
Solution: 2.57e+12

Problem: Which value of bimolecular quenching rate constant (K q) has been reported for Oc1cc(O)c2cc(O)c(-c3ccc(O)c(O)c3)[o+]c2c1 in the records?
Solution: 2.98e+12

Problem: Which value of bimolecular quenching rate constant (K q) has been reported for COc1ccc(-c2cc(=O)c3c(OC)c(OC)c(OC)cc3o2)cc1O in the records?
Solution: 9e+12

Problem: Which value of bimolecular quenching rate constant (K q) has been reported for O=c1c(O)c(-c2ccc(O)cc2)oc2cc(O)cc(O)c12 in the records?
Solution: 2.84e+12

Problem: Which value of bimolecular quenching rate constant (K q) has been reported for O=c1cc(-c2ccc(O)cc2)oc2cc(O[C@@H]3O[C@H](CO)[C@@H](O)[C@H](O)[C@H]3O)cc(O)c12 [Apigenin-7-glucoside, apigenin-7-glucoside] in the records?
Solution: 4.4e+12

Problem: Which value of bimolecular quenching rate constant (K q) has been reported for COc1cc(O)c2c(=O)c(O)c(-c3ccc(O)c(O)c3)oc2c1 in the records?
Solution: 2.85e+12

Problem: Which value of bimolecular quenching rate constant (K q) has been reported for C[C@@H]1O[C@@H](OC[C@H]2O[C@@H](Oc3c(-c4ccc(O)c(O)c4)oc4cc(O)cc(O)c4c3=O)[C@H](O)[C@@H](O)[C@@H]2O)[C@H](O)[C@H](O)[C@H]1O in the records?
Solution: 4.52e+12

---

- targetOfAssay: PDIA3 (Homo sapiens, UniProt P30101)
- Construct: made in house; host or cells: E. coli BL21 (vector pET21)
- methodSummary: Fluorescence quenching titration of PDIA3 intrinsic fluorescence
- Assay type: binding
- statedConditions: equation of Bi et al., reiterative calculation of Sun et al.; reduced PDIA3, pH 7.4, 25°C
One threshold, 40000 M⁻¹, splits the recorded binding constant (K b) values: lower ones are T, equal or higher ones are F.

O=c1c(O)c(-c2ccc(O)cc2O)oc2cc(O)cc(O)c12 = T
O=c1c(O)c(-c2ccc(O)c(O)c2)oc2cc(O)ccc12 = T
O=c1c(-c2ccc(O)cc2)coc2cc(O)cc(O)c12 = T
O=c1cc(-c2ccc(O)cc2)oc2cc(O)cc(O)c12 = F
C[C@@H]1O[C@@H](Oc2c(-c3ccc(O)c(O)c3)oc3cc(O)cc(O)c3c2=O)[C@H](O)[C@H](O)[C@H]1O = T

Problem: Hello, I'm reviewing records and need to know if binding constant (K b) of O=c1cc(-c2ccc(O)c(O)c2)oc2cc(O[C@@H]3O[C@H](CO)[C@@H](O)[C@H](O)[C@H]3O)cc(O)c12 [Luteolin-7-glucoside, luteolin-7-glucoside] is below 40000 M⁻¹. Could you check?
Solution: T

Problem: Hello, I'm reviewing records and need to know if binding constant (K b) of C[C@@H]1O[C@@H](OC[C@H]2O[C@@H](Oc3c(-c4ccc(O)c(O)c4)oc4cc(O)cc(O)c4c3=O)[C@H](O)[C@@H](O)[C@@H]2O)[C@H](O)[C@H](O)[C@H]1O is below 40000 M⁻¹. Could you check?
Solution: F

Problem: Hello, I'm reviewing records and need to know if binding constant (K b) of Oc1cc(O)c2cc(O)c(-c3ccc(O)c(O)c3)[o+]c2c1 is below 40000 M⁻¹. Could you check?
Solution: T

Problem: Hello, I'm reviewing records and need to know if binding constant (K b) of COc1ccc(-c2cc(=O)c3c(OC)c(OC)c(OC)cc3o2)cc1O is below 40000 M⁻¹. Could you check?
Solution: F

Problem: Hello, I'm reviewing records and need to know if binding constant (K b) of O=c1c(O)c(-c2ccc(O)cc2)oc2cc(O)cc(O)c12 is below 40000 M⁻¹. Could you check?
Solution: T

Problem: Hello, I'm reviewing records and need to know if binding constant (K b) of O=c1cc(-c2ccc(O)cc2)oc2cc(O[C@@H]3O[C@H](CO)[C@@H](O)[C@H](O)[C@H]3O)cc(O)c12 [Apigenin-7-glucoside, apigenin-7-glucoside] is below 40000 M⁻¹. Could you check?
Solution: F

Problem: Hello, I'm reviewing records and need to know if binding constant (K b) of COc1cc(O)c2c(=O)c(O)c(-c3ccc(O)c(O)c3)oc2c1 is below 40000 M⁻¹. Could you check?
Solution: T

Problem: Hello, I'm reviewing records and need to know if binding constant (K b) of COc1cc(-c2oc3cc(O)cc(O)c3c(=O)c2O)ccc1O is below 40000 M⁻¹. Could you check?
Solution: T

Problem: Hello, I'm reviewing records and need to know if binding constant (K b) of COc1c(-c2ccc(O)c(O)c2)oc2cc(O)cc(O)c2c1=O is below 40000 M⁻¹. Could you check?
Solution: F

---

- targetOfAssay: PDIA3 (Homo sapiens)
- Construct: made in house; host or cells: E. coli BL21 (vector pET21)
- methodSummary: Fluorescence quenching titration of PDIA3 intrinsic fluorescence
- Assay type: binding
- statedConditions: K SV = K q τ0 with τ0 of the order of 10^−8 s; reduced PDIA3, pH 7.4, 25°C
Each entry below carries its reported bimolecular quenching rate constant (K q).
Express the result in M⁻¹ s⁻¹ but write the number alone.

O=c1cc(-c2ccc(O)cc2)oc2cc(O)cc(O)c12 = 5.43e+12
O=c1c(O)c(-c2ccc(O)c(O)c2)oc2cc(O)ccc12 = 3.32e+12

Problem: Which value of bimolecular quenching rate constant (K q) has been reported for O=c1c(O)c(-c2ccc(O)cc2O)oc2cc(O)cc(O)c12 in the records?
Solution: 2.41e+12

Problem: Which value of bimolecular quenching rate constant (K q) has been reported for COc1ccc(-c2cc(=O)c3c(O)c(OC)c(OC)cc3o2)cc1O in the records?
Solution: 8.94e+12

Problem: Which value of bimolecular quenching rate constant (K q) has been reported for O=c1cc(-c2ccc(O)c(O)c2)oc2cc(O[C@@H]3O[C@H](CO)[C@@H](O)[C@H](O)[C@H]3O)cc(O)c12 [Luteolin-7-glucoside, luteolin-7-glucoside] in the records?
Solution: 3.16e+12
